Target: human Neurokinin, NK2 Receptor, TACR2 (gene 6865)
Assay: NVS_GPCR_hNK2: NovaScreen (NVS) G Protein-Coupled Receptor Assay for human Neurokinin, NK2 Receptor (AID 2283278);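 note: actives reduce bound radioligand signal relative to DMSO baseline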
Results filed as inconclusive are left out. Activity calls are given as the source filed them. Rule for the calls: active = hit-call score of the fitted dose curve at least 0.9, where 1 is the maximum; inconclusive = response in the unintended direction; inactive = score below 0.9.
Respond with a class label; see YES (active), NO (inactive)

Input line: Recorded test call requested for [O-]n1ccccc1=S.[O-]n1ccccc1=S.[Zn+2]
Output line: YES

Input line: Assay outcome for CC(C)(N=C=O)c1cccc(C(C)(C)N=C=O)c1 : what was it?
Output line: NO

Input line: Hi team, can someone confirm the assay call for COc1ccc(OC)c(N=Nc2c(O)ccc3ccccc23)c1 ?
Output line: YES

Input line: Which outcome did this test record for the molecule CN(C)C(=O)Nc1ccc(Oc2ccc(Cl)cc2)cc1 ?
Output line: NO

Input line: Given NC(=S)NNC(N)=S , state the outcome it received in this test.
Output line: NO

Input line: What is the recorded call for this molecule in the test? CC(C)(C)CC(C)(C)c1ccc(OCCOCC[N+](C)(C)Cc2ccccc2)cc1
Output line: YES

Input line: Write down the call the test reported for this molecule. Item: CN(C)C(=S)SC(=S)N(C)C
Output line: YES

====

Assay: ATG_M_61_CIS: Attagene CIS-FACTORIAL HepG2 Assay for M61 Transcription Factor (Internal Marker) (AID 2282937)
Settings: HepG2 Attagene CIS-FACTORIAL M61 internal marker reporter; actives raise or lower the signal
Activity calls are given as the source filed them. How the source made its calls: active means hit-call score of the fitted dose curve at least 0.9, where 1 is the maximum; inactive means score below 0.9.
Observed property: outcome

Known outcome results, listed for orientation:
Molecule: COc1cc(CCC(C)=O)ccc1O
Observed property: outcome
Assay value: inactive
--
Molecule: [O-]n1ccccc1=S.[O-]n1ccccc1=S.[Zn+2]
Observed property: outcome
Assay value: inactive
--
Molecule: CCOc1ccccc1O
Observed property: outcome
Assay value: inactive
--
Molecule: CCc1cc(C(C)(C)C)c(O)c(C(C)(C)C)c1
Observed property: outcome
Assay value: inactive
--
Molecule: COC(CC(C)CCCC(C)(C)O)OC (stereo not given)
Observed property: outcome
Assay value: inactive

The record that follows has no outcome shown yet.
Input line: Look up outcome: CCOC(=O)C1OC1c1ccccc1 (stereo not given)
Output line: inactive

====

Read-out: TIMP metallopeptidase inhibitor 2 (TIMP2), TIMP2 (gene 7077)
Experiment: BSK_KF3CT_TIMP2: BioMAP Diversity Plus: KF3CT Assay for TIMP metallopeptidase inhibitor 2 (TIMP2) Biomarker Activity (AID 2283071)
Conditions: primary human keratinocytes with fibroblasts; actives raise or lower the signal
Calls of active or inactive are those of the source. How the source made its calls: active means hit-call score of the fitted dose curve at least 0.9, where 1 is the maximum; inactive means score below 0.9.
Observed property: AC50

Compound: CC(C)(N=C=O)c1cccc(C(C)(C)N=C=O)c1
Assay value: inactive

Compound: CS(=O)(=O)OCCCCOS(C)(=O)=O
Assay value: inactive

Compound: Clc1cc(Cl)c(-c2c(Cl)c(Cl)cc(Cl)c2Cl)cc1Cl
Assay value: 6.63 µM (active)

Compound: CC(=O)c1c(C)c([N+](=O)[O-])c(C(C)(C)C)c([N+](=O)[O-])c1C
Assay value: inactive

Compound: C=C(C)[C@H]1CC=C(C)C(=O)C1
Assay value: inactive

Compound: CN(C)C(=O)Nc1ccc(Oc2ccc(Cl)cc2)cc1
Assay value: inactive

Compound: CCCCN(CCCC)C(=O)N(CCCC)CCCC
Assay value: 4.62 µM (active)

Compound: CC(C)(C)CC(C)(C)c1ccc(OCCOCC[N+](C)(C)Cc2ccccc2)cc1
Assay value: 2.26 µM (active)

Input line: What does the data say about its AC50? Entry: O=C1c2ccccc2C(=O)c2c(O)ccc(O)c21
Output line: inactive

Input line: What value of AC50 has been reported for the following compound? CCCCCC(C=O)=Cc1ccccc1
Output line: 30 µM (active)

Input line: Can you share its AC50? I mean this compound: CC(C=O)Cc1ccc(C(C)(C)C)cc1 (configuration not stated)
Output line: 32.4 µM (active)

Input line: Quick one: AC50 of O=C(Nc1ccc2c(O)c(N=Nc3ccc(N=Nc4ccc(S(=O)(=O)O)cc4)cc3)c(S(=O)(=O)O)cc2c1)c1ccccc1 ?
Output line: inactive
